Cited source: ChEMBL document CHEMBL3608306

tested on: Mycobacterium tuberculosis; experiment: Inhibition of Mycobacterium tuberculosis His6-tagged InhA expressed in Escherichia coli BL21 using 2-trans-dodecenoyl-CoA as substrate assessed as conversion of NADH to NAD+ at 10 uM relative to control

| COMPOUND | TESTED TARGET | VALUE UNITS | inhibition |
| --- | --- | --- | --- |
| S=C(Nc1ccccc1)N1CCN(C2c3ccccc3-c3ccccc32)CC1 | Mycobacterium tuberculosis | % | 32 |
| CCCCCCOc1ccc2c(c1)-c1ccccc1C2C1CCN(C(=O)c2ccccc2)CC1 (racemic) | Mycobacterium tuberculosis | % | 71 |
| CCCOc1ccc2c(c1)-c1ccccc1C2N1CCN(C(=O)c2ccccc2)CC1 (racemic) | Mycobacterium tuberculosis | % | 84 |
| CCCCCCCCC(=O)N1CCN(C2c3ccccc3-c3ccccc32)CC1 | Mycobacterium tuberculosis | % | 22 |
| O=C(c1ccccc1)N1CCN(C2c3ccccc3-c3cc(OCc4ccccc4)ccc32)CC1 (racemic) | Mycobacterium tuberculosis | % | 57 |
| CCCCCCCCc1ccc2c(c1)C(N1CCN(C(=O)c3ccccc3)CC1)c1ccccc1-2 (racemic) | Mycobacterium tuberculosis | % | 27 |
| CCCOc1ccc2c(c1)C(N1CCN(C(=O)c3ccccc3)CC1)c1ccccc1-2 (racemic) | Mycobacterium tuberculosis | % | 83 |

---

# key: entry, value: inhibition
test system: Mycobacterium tuberculosis; test: Inhibition of Mycobacterium tuberculosis His6-tagged InhA expressed in Escherichia coli BL21 using 2-trans-dodecenoyl-CoA as substrate assessed as conversion of NADH to NAD+ at 10 uM relative to control

| COMPOUND | inhibition [%] |
| --- | --- |
| O=C(c1ccc2[nH]ccc2c1)N1CCN(C2c3ccccc3-c3ccccc32)CC1 | 81 |
| O=C(c1ccccc1)N1CCC(C2c3ccccc3-c3ccccc32)CC1 | 88 |
| O=C(Nc1ccccc1)N1CCN(C2c3ccccc3-c3ccccc32)CC1 | 79 |
| CCCCCCOc1ccc2c(c1)-c1ccccc1C2N1CCN(C(=O)c2ccccc2)CC1 (racemic) | 70 |
| COc1ccc2c(c1)-c1ccccc1C2N1CCN(C(=O)c2ccccc2)CC1 (racemic) | 74 |
| CCCCC(=O)N1CCN(C2c3ccccc3-c3ccccc32)CC1 | 45 |
| CCCCCCc1ccc2c(c1)C(N1CCN(C(=O)c3ccccc3)CC1)c1ccccc1-2 (racemic) | 45 |
| O=C(c1ccccc1)N1CCN(C2c3ccccc3-c3ccccc32)CC1 | 94 |
| CCCCCCc1ccc2c(c1)-c1ccccc1C2N1CCN(C(=O)c2ccccc2)CC1 (racemic) | 52 |
| CCCCNC(=O)N1CCN(C2c3ccccc3-c3ccccc32)CC1 | 42 |

---

IC50 overview
assay: Inhibition of Mycobacterium tuberculosis His6-tagged InhA expressed in Escherichia coli BL21 using 2-trans-dodecenoyl-CoA as substrate assessed as conversion of NADH to NAD+
READOUT KIND: IC50 (nM)

| COMPOUND | OBSERVED |
| --- | --- |
| CCCCCCOc1ccc2c(c1)-c1ccccc1C2N1CCN(C(=O)c2ccccc2)CC1 (single isomer, unassigned; enantiomer 2) | 102 |
| CCCCCCOc1ccc2c(c1)-c1ccccc1C2C1CCN(C(=O)c2ccccc2)CC1 (racemic) | 1050 |
| O=C(c1ccccc1)N1CCN(C2c3ccccc3-c3ccccc32)CC1 | 490 |
| COc1ccc2c(c1)-c1ccccc1C2N1CCN(C(=O)c2ccccc2)CC1 (racemic) | 2690 |
| O=C(Nc1ccccc1)N1CCN(C2c3ccccc3-c3ccccc32)CC1 | 1180 |
| CCCCCCOc1ccc2c(c1)-c1ccccc1C2N1CCN(C(=O)c2ccccc2)CC1 (racemic) | 200 |
| O=C(c1ccccc1)N1CCC(C2c3ccccc3-c3ccccc32)CC1 | 940 |
| O=C(c1ccc2[nH]ccc2c1)N1CCN(C2c3ccccc3-c3ccccc32)CC1 | 860 |
| CCCCCCc1ccc2c(c1)-c1ccccc1C2N1CCN(C(=O)c2ccccc2)CC1 (racemic) | 1000 |
